System: K4 kissing-loop RNA reporter;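 note: bound reporter read as fluorescence of individual clusters on recovered sequencing chips by microscopy, with normalized cluster intensities fitted with a binding model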
Assay: apparent KD of K4 kissing-loop reporter; higher = weaker reporter binding
Conditions: Eterna round: R107; input ligand: arginine 13.2 mM
measure name: apparent KD of K4 kissing-loop reporter (nM)
Answers are plain numbers, in nM.

# ordered residues, assayed system, val
measured = [
    ("CCCUCACGAGUGAUGUUCGUAGGGUACAGUCAGGAUAUCAUGCGGUUGAGAAGGGACAGAGAAGGCGGCCACGGGUUGCUUAUCU [Ussoat]", "K4 kissing-loop RNA reporter", 258),
]

For every listed record, write down its apparent KD of K4 kissing-loop reporter.
1. UGUAAUGAGUGAUGUUCAUGUAGUAAGGAUACCAGUAAUUCAAAAUGCCCUUGGCAGCUUAGUUCUAUCUAUAGUUGGGUAGUGG [Theophilline A V4 (+5U)]
2. UAACGCCACUAAGAUACCAGACAUACAGAUCGGAUCUCCUAAAGAGAGUGAUGUUCUCUAGUCCCUUGGCAGCUUCUGGACUCCC [theeternabot_sameState_KL_Theo_B_9]

Response:
209
356

###

System: MS2 coat protein
Experiment: apparent KD of MS2 coat protein; designed switch direction (-1 OFF switch, 1 ON switch): 1; higher = weaker reporter binding
Conditions: Eterna round: R95; input ligand: microRNA oligo, concentration not stated
Answer each item with its documented apparent KD of MS2 coat protein.
Give bare numbers, in nM.

Your task in this section: give apparent KD of MS2 coat protein for each listed record.
1. AUAAGUUCGAUGCUCGUCUCUCCGUACAAACAUGAGGAUCACCCAUGUGAUCGAGAAGUAGCCCGAUCAGUAUGGCC [Soainge] (puzzle: Sensor for hsa-mir-208a)
2. UGCGGAUAACAGUAGGAUAUGGUCAACGCCACAUGAGGAUCACCCAUGUCGUACCGGCACCUGGACUAGAAGGACUGCCUCCCGC [Esleberi] (puzzle: Same State 2)
3. GGAUAACAUGAGGAUCACCCAUGUCAACAAAGUCGAGGAUAUGGGCAAUUAUAAUUAGAACCAGAAGGCGAAUAGG [Mat - Same State 1 - Mod of UCT - D44] (puzzle: Same State 1)
4. ACAAGCUUUUUUGUAGUGAAAGGUGGGAUACAUGAGGAUCACCCAUGUAUUGUUGUUAAUAUUUGUCCUCGUCUUAU [JR_SHM208A_Sub085] (puzzle: Sensor for hsa-mir-208a)

Response:
27
26.4
126
13.9

# return apparent KD of MS2 coat protein for each item in the list
1. UACAAUCUAUCUGAGGAUAUCAUGAAGAAAACAUGAGGAUCACCCAUGUGCAGGAUAACUGCAAAUGAGAAGGCAGAUAGAUUGG [Mat - Same State 2 - Mod - D4] (puzzle: Same State 2)
2. UCUUGGUUUUUGCUCGUUUUUUGUGUUGAACAUGAGGAUCACCCAUGUAUUGUACGGUCCGGUUUGGUAGUGGUCCG [JMF 16] (puzzle: Sensor for hsa-mir-208a)

Response:
[17, 29.4]

Look up apparent KD of MS2 coat protein for the entries below, preserving their order.
1. UGGUAACAUGAGGAUCACCCAUGUCAAAUGAAUCAAGGAUAUGGGAAAGGAGAAGAGAAACCAGAAGGUGAGGUUG [Altered State 1-15 - Jieux - Same State 1] (puzzle: Same State 1)
2. AUAAGUUUGAUGCUCGUCUCUCCGUACUAACAUGAGGAUCACCCAUGUGGUCGGGAAGUAGCCCGGCCAGUAUGGCC [Lequteti] (puzzle: Sensor for hsa-mir-208a)
3. AUAAAACAUGAGGAUCACCCAUGUAAUCGCCAGACAGGAUAUAUAGUGGCAUUUGCAGGGAUAGAAGGGUCGUGGC [Lerainxege] (puzzle: Same State 1)

Response:
[205, 19.4, 35.1]

Query: Request body: readout apparent KD of MS2 coat protein, system MS2 coat protein, query GGUCCAGCCUGAGCUGGACGAUAGUAUGUACAUGAGGAUCACCCAUGUCAUGUAUAAGUAUUUUGUUUGUCUUGAAA [Sensorship 3 - Jieux - Sensor for hsa-mir-208a] (puzzle: Sensor for hsa-mir-208a) . Return the value.
Response: 14.7
